tested on: HL-60; assay: Cytotoxicity against human HL60 cells after 48 hrs by WST8 assay; format: functional; details: HL-60, 48 h
metric: GI50 (µM)

INSERT INTO assay_data (compound, assay_value) VALUES
  ('C/C=C(/C)C(=O)O[C@H]1[C@H](OC(C)=O)[C@]2(CO)[C@H](O)C[C@]3(C)C(=CC[C@@H]4[C@@]5(C)CC[C@H](O[C@@H]6O[C@H](C(=O)O)[C@@H](O)[C@H](O[C@@H]7O[C@@H](CO)[C@H](O)[C@H]7O)[C@H]6O[C@@H]6O[C@H](CO)[C@H](O)[C@H](O)[C@H]6O)C(C)(C)[C@@H]5CC[C@]43C)[C@@H]2CC1(C)C [AESCULIOSIDE IIK]', 8.75),
  ('C/C=C(/C)C(=O)O[C@H]1[C@H](OC(=O)/C(C)=C\C)[C@]2(CO)[C@H](O)C[C@]3(C)C(=CC[C@@H]4[C@@]5(C)CC[C@H](O)C(C)(C)[C@@H]5CC[C@]43C)[C@@H]2CC1(C)C', 5.46),
  ('C/C=C(/C)C(=O)O[C@H]1[C@H](OC(C)=O)[C@]2(CO)[C@H](O)C[C@]3(C)C(=CC[C@@H]4[C@@]5(C)CC[C@H](O[C@@H]6O[C@H](C(=O)O)[C@@H](O)[C@H](O[C@@H]7O[C@@H](CO)[C@H](O)[C@H]7O)[C@H]6O[C@@H]6O[C@H](CO)[C@@H](O)[C@H](O)[C@H]6O)[C@](C)(CO)[C@@H]5CC[C@]43C)[C@@H]2CC1(C)C [AESCULIOSIDE III]', 8.37),
  ('C/C=C(/C)C(=O)O[C@H]1[C@H](OC(=O)/C(C)=C\C)[C@]2(CO)[C@H](O)C[C@]3(C)C(=CC[C@@H]4[C@@]5(C)CC[C@H](O[C@@H]6O[C@H](C(=O)O)[C@@H](O)[C@H](O[C@@H]7O[C@@H](CO)[C@H](O)[C@H]7O)[C@H]6O[C@@H]6O[C@H](CO)[C@@H](O)[C@H](O)[C@H]6O)[C@](C)(CO)[C@@H]5CC[C@]43C)[C@@H]2CC1(C)C', 1.94),
  ('C/C=C(/CC)C(=O)O[C@H]1[C@H](OC(C)=O)[C@]2(CO)[C@H](O)[C@H](O)[C@]3(C)C(=CC[C@@H]4[C@@]5(C)CC[C@H](O[C@@H]6O[C@H](C(=O)O)[C@@H](O)[C@H](O[C@@H]7OC[C@H](O)[C@H](O)[C@H]7O)[C@H]6O[C@@H]6O[C@H](CO)[C@@H](O)[C@H](O)[C@H]6O)C(C)(C)[C@@H]5CC[C@]43C)[C@@H]2CC1(C)C [SANICULASAPONIN III]', 7.11),
  ('C/C=C(/C)C(=O)O[C@H]1[C@H](O)[C@]2(CO)[C@H](O)[C@H](O)[C@]3(C)C(=CC[C@@H]4[C@@]5(C)CC[C@H](O[C@@H]6O[C@H](C(=O)O)[C@@H](O)[C@H](O[C@@H]7OC[C@@H](O)[C@H](O)[C@H]7O)[C@H]6O[C@@H]6O[C@H](CO)[C@@H](O)[C@H](O)[C@H]6O)C(C)(C)[C@@H]5CC[C@]43C)[C@@H]2CC1(C)C [ERYNGIOSIDE 94A]', 9.38);
